Test: Human HepG2 cell viability assay in 384 well format
Format: toxicity, cell-based
Design: dose 125 nL, time 70.5 hour; concentration not given beside the values
Details: HepG2 cells, read-out: Inhibition

molecule: COc1ccc(CN2CCC3(CC2)C(C(=O)O)CC(=O)N3C)cc1Cl (configuration not stated)
units: %
cytotoxicity at 70.5 h: -3.23

molecule: COc1cc(-c2cccc3c2OC(CN)C3)ccc1O (configuration not stated)
units: %
cytotoxicity at 70.5 h: 14.1

molecule: COc1ccc(OCCNC(=O)CN(C)Cc2nnc(C)n2C)cc1
units: %
cytotoxicity at 70.5 h: 29.6

molecule: COc1ccccc1C(=O)N1C[C@@H]2CCCCN(CC(N)=O)[C@@H]2C1
units: %
cytotoxicity at 70.5 h: -11.4

molecule: CN(C)c1ccnc(C2CCCN2)n1 (configuration not stated)
units: %
cytotoxicity at 70.5 h: -3.83

molecule: O=c1[nH]c(-c2ccncc2)ncc1-c1ccnc(NC2CCCCC2)n1
units: %
cytotoxicity at 70.5 h: 18.2

molecule: Cc1ccccc1N1CCN(C(=O)c2cscn2)C(C)C1 (configuration not stated)
units: %
cytotoxicity at 70.5 h: -1.54

molecule: CC(C)OCc1ccc(CNc2cncc(-n3cccn3)n2)cc1
units: %
cytotoxicity at 70.5 h: -5.97

molecule: COc1ccc(CN2CCN(C(C)=O)CC2)cc1SC(F)(F)F
units: %
cytotoxicity at 70.5 h: 0.0728

molecule: N#Cc1ccc(C(=O)N2CCC3(CC2)C(=O)Nc2ccccc23)cn1
units: %
cytotoxicity at 70.5 h: -11.7

molecule: CCCOCC(=O)N1CCc2nc(NC)nc(C(=O)N3CCCC3)c2C1
units: %
cytotoxicity at 70.5 h: -4.23

molecule: COc1ccc(N(Cc2ccco2)C(=O)COC(C)C)cc1F
units: %
cytotoxicity at 70.5 h: -7.47

---

Test: Human HepG2 cell viability assay in 384 well format
Type: toxicity, cell-based
Design: dose 125 nL, time 70.5 hour; concentration not given beside the values
Settings: HepG2 cells, read-out: Inhibition

compound: CC(C)CC(CO)NS(=O)(=O)Cc1ccon1 (configuration not stated)
cytotoxicity at 70.5 h (%): -6.44

compound: CC(C)CNC(=O)CC1OCCc2ccsc21 (configuration not stated)
cytotoxicity at 70.5 h (%): -7.58

compound: Cn1nnnc1SCCNC(=O)c1c[nH]nc1C1CCCCC1
cytotoxicity at 70.5 h (%): -9.31

compound: COCc1noc(-c2ccc(N(C)Cc3ccc(C)o3)nc2)n1
cytotoxicity at 70.5 h (%): -2.55

compound: CCN1CCC(CNC(=O)Nc2cnn(CC(N)=O)c2)C1 (configuration not stated)
cytotoxicity at 70.5 h (%): -8.69

compound: Cc1ccc(N2CCO[C@H]3CN(C(=O)c4cccc(C)n4)C[C@H]32)nn1
cytotoxicity at 70.5 h (%): -9.8

compound: COC(=O)N1CCN(CCCc2nnnn2-c2ccccc2)CC1
cytotoxicity at 70.5 h (%): 8.7

compound: Cc1ccc(C(CCNCCCN(C)C)C2CCOC(C)(C)C2)cc1 (configuration not stated)
cytotoxicity at 70.5 h (%): 30.6

compound: CC(O)CNc1c(NCc2ccco2)c(=O)c1=O (configuration not stated)
cytotoxicity at 70.5 h (%): -9.21

compound: NC(=O)C1CCN(C(=O)Cn2ccc3cc(Br)ccc32)CC1
cytotoxicity at 70.5 h (%): -9.96

compound: Cc1cc(F)ccc1OC1(C(=O)O)CCN(Cc2nccn2C)CC1
cytotoxicity at 70.5 h (%): -7.09

compound: CN1CCc2onc(Cn3cccc3)c2C1
cytotoxicity at 70.5 h (%): -0.902

compound: Cc1nc(N2CCN(C(=O)c3ccccn3)CC2)c2c(n1)c(C)nn2C
cytotoxicity at 70.5 h (%): -8.87

compound: Cc1ccc2nc(N3CCN(CC(=O)NC(C)C)CC3)cc(C)c2c1
cytotoxicity at 70.5 h (%): -1.6

compound: CCn1c(NCc2ccco2)nc2c(C)nn(C)c2c1=O
cytotoxicity at 70.5 h (%): 31.6

compound: CCn1ncc2c1CCCC2NCc1ccc(OC)c(F)c1 (configuration not stated)
cytotoxicity at 70.5 h (%): -9.63

compound: CC(=O)c1sc(Nc2ccc(Cl)cn2)nc1C
cytotoxicity at 70.5 h (%): 31.3

compound: F[C@@H]1CN(CC2CCCCC2)C[C@@H]1OCc1nc2ccccc2o1
cytotoxicity at 70.5 h (%): 1.33

compound: Cc1cc(C)c2c(N(C)CC3COCCO3)ncnc2n1 (configuration not stated)
cytotoxicity at 70.5 h (%): -8.16

compound: Cc1ccc(Oc2cc(F)ccc2O[C@@H]2CCC[C@@H](N)[C@H]2O)cc1
cytotoxicity at 70.5 h (%): 16

compound: COCCN(CCC#N)S(=O)(=O)c1cc(F)cc(F)c1
cytotoxicity at 70.5 h (%): 3.86

compound: CC1(C(N)=O)CN(S(=O)(=O)c2cccc(F)c2)CCO1 (configuration not stated)
cytotoxicity at 70.5 h (%): 14.7

compound: Cc1c[nH]nc1C1CCN(C(=O)Cn2cccn2)C1 (configuration not stated)
cytotoxicity at 70.5 h (%): -7.3

compound: CN(C)C(=O)CN1CCC2(CCCN(c3ncc(F)cn3)C2)C1=O (configuration not stated)
cytotoxicity at 70.5 h (%): 16.4

compound: CCNc1cc2c(nn1)CCN(C(=O)c1cc(C)no1)C2
cytotoxicity at 70.5 h (%): -3.88

compound: CN(CCn1cccn1)S(=O)(=O)c1cccc(F)c1C#N
cytotoxicity at 70.5 h (%): -9.35

compound: Cc1ccc(C(=O)NCCNCC2CNc3ccnn3C2)cc1 (configuration not stated)
cytotoxicity at 70.5 h (%): -0.325
